Assay: recombinant barcode read abundance after kanamycin selection (control-corrected) (log10(CPM+1)); higher = more efficient recombination; sequences stand for … in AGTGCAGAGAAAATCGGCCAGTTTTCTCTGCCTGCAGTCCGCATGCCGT…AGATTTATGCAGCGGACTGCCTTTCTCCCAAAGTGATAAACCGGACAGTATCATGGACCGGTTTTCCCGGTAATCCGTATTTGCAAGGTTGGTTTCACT; site = the 11-nt target
Catalogue of recombinant barcode read abundance (log10) values
Reply with just the number.

Please review the following examples before continuing.
TATGTAGCTTGGGTTCTAACCTGTTGCCG (site TATGTAGCTCG)    1.04
TGAGTGGCTTGGGTTCTAACCTGTTGCCT (site TGAGTGGCTAG)    0.749
CGCGTTGCTTGGGTTCTAACCTGTTGCCT (site AAGCCCACTCC)    0.0136

Which recombinant barcode read abundance (log10) is reported for this sequence? CAATCCTCTTGGGTTCTAACCTGTTGCTT (site CCATCCTCTAA)
0

Which recombinant barcode read abundance (log10) is reported for this sequence? CTAACCTCTTGGGTTCTAACCTGTTGCTA (site CTAACCTCTAA)
0.0338

Which recombinant barcode read abundance (log10) is reported for this sequence? ACGAACGCTTGGGTTCTAACCTGTTGCCT (site ACGACCGCTAG)
0.344

Which recombinant barcode read abundance (log10) is reported for this sequence? TAGACTACTTGGGTTCTAACCTGTTGCTT (site TAGACTACTAA)
0.0704

Which recombinant barcode read abundance (log10) is reported for this sequence? CTAAGGTCTTGGGTTCTAACCTGTTGCAT (site CTAAGGTCTAG)
0.214

Which recombinant barcode read abundance (log10) is reported for this sequence? TAAGTGTCTTGGGTTCTAACCTGTTGCCT (site TAGGTGTCTAG)
0.314

Which recombinant barcode read abundance (log10) is reported for this sequence? CCATCAACTTGGGTTCTAACCTGTTGCCT (site CCATCAACTAG)
0.0699

Which recombinant barcode read abundance (log10) is reported for this sequence? CCAGAGTCTTGGGTTCTAACCTGTTGCCA (site CCAGAGTCTTG)
1.22

Which recombinant barcode read abundance (log10) is reported for this sequence? TGTAGTCCTTGGGTTCTAACCTGTTGCGT (site TGTAGTCCTAC)
1.19

Which recombinant barcode read abundance (log10) is reported for this sequence? AACAATACTTGGGTTCTAACCTGTTGCCT (site CTGTGAGCTCT)
0.0738

Which recombinant barcode read abundance (log10) is reported for this sequence? TAGAATCCTTGGGTTCTAACCTGTTGCAT (site TAGAATCCTTT)
0.241

Which recombinant barcode read abundance (log10) is reported for this sequence? GGTGGGGCTTGGGTTCTAACCTGTTGCTG (site GGTTGAGCTCA)
0.536

Which recombinant barcode read abundance (log10) is reported for this sequence? GGTAACCCTTGGGTTCTAACCTGTTGCGG (site GGTCACCCTCC)
0.0921

Which recombinant barcode read abundance (log10) is reported for this sequence? ACTGCGTCTTGGGTTCTAACCTGTTGCCT (site ACTGCGTCTAG)
1.6

Which recombinant barcode read abundance (log10) is reported for this sequence? TACGTGTCTTGGGTTCTAACCTGTTGCCT (site TAAGTGTCTAG)
0.408

Which recombinant barcode read abundance (log10) is reported for this sequence? CTCGTAGCTTGGGTTCTAACCTGTTGCCT (site AGTAGTTCTCT)
0.223

Which recombinant barcode read abundance (log10) is reported for this sequence? CTACTAGCTTGGGTTCTAACCTGTTGCAC (site CTACTAGCTAT)
0.0299

Which recombinant barcode read abundance (log10) is reported for this sequence? GTTACTACTTGGGTTCTAACCTGTTGCCG (site TGGTACCCTTA)
0.0233

Which recombinant barcode read abundance (log10) is reported for this sequence? TCTCTGCCTTGGGTTCTAACCTGTTGCCT (site TCTCCGCCTAG)
1.15

Which recombinant barcode read abundance (log10) is reported for this sequence? TAGTTCACTTGGGTTCTAACCTGTTGCAT (site TAGGTCACTAT)
0.159

Which recombinant barcode read abundance (log10) is reported for this sequence? CGGAATCCTTGGGTTCTAACCTGTTGCGT (site CGGAATCCTAC)
2.33

----------
Assay: recombinant barcode read abundance after kanamycin selection (control-corrected) (log10(CPM+1)); higher = more efficient recombination; sequences stand for … in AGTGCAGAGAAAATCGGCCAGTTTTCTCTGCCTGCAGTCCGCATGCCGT…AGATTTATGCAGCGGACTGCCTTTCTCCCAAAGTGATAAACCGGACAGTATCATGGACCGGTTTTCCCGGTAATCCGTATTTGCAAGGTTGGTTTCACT; site = the 11-nt target
Catalogue of recombinant barcode read abundance (log10) values
Reply with just the number.

Which recombinant barcode read abundance (log10) is reported for this sequence? CCTGAGACTTGGGTTCTAACCTGTTGCAG (site CCTGGCACTCT)
0.297

Which recombinant barcode read abundance (log10) is reported for this sequence? TAGGAACCTTGGGTTCTAACCTGTTGCCT (site GAGGAACCTAG)
0.0651

Which recombinant barcode read abundance (log10) is reported for this sequence? GACTGGTCTTGGGTTCTAACCTGTTGCAT (site GACTGGTCTAG)
0.969

Which recombinant barcode read abundance (log10) is reported for this sequence? TGACGTCCTTGGGTTCTAACCTGTTGCAT (site TGACGTCCTAC)
0.0943

Which recombinant barcode read abundance (log10) is reported for this sequence? GGATTTACTTGGGTTCTAACCTGTTGCCT (site GGATTTACTAG)
0.276

----------
Catalogue of recombinant UMI read abundance (log10) values
Experiment: recombinant UMI read abundance after kanamycin selection (control-corrected) (log10(CPM+1)); higher = more efficient recombination; extreme values may be limits of the assay; sequences stand for … in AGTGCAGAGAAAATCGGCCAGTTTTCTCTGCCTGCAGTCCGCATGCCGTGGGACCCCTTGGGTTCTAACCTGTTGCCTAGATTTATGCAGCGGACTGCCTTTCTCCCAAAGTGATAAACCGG…AGGTTGGTTTCACT; site = the 11-nt donor
Reply with just the number.

Please review the following examples before continuing.
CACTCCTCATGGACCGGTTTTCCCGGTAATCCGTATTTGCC (site CACTTCTCTGG)    0
TCAGATACATGGACCGGTTTTCCCGGTAATCCGTATTTGCG (site TCAGAGACTCG)    0.00723

Which recombinant UMI read abundance (log10) is reported for this sequence? TAGCTTTCATGGACCGGTTTTCCCGGTAATCCGTATTTGGT (site TAGCTTTCTAC)
0.807

Which recombinant UMI read abundance (log10) is reported for this sequence? CCCTTCGCATGGACCGGTTTTCCCGGTAATCCGTATTTGGG (site CCCTTCCCTCC)
0

Which recombinant UMI read abundance (log10) is reported for this sequence? GAATCGCCATGGACCGGTTTTCCCGGTAATCCGTATTTGCA (site GAATTGCCTTG)
0

Which recombinant UMI read abundance (log10) is reported for this sequence? TCCACGGCATGGACCGGTTTTCCCGGTAATCCGTATTTGCG (site TCCACAGCTCG)
0.0432

Which recombinant UMI read abundance (log10) is reported for this sequence? CACTCCGCATGGACCGGTTTTCCCGGTAATCCGTATTTGCC (site CACTCCCCTGG)
0

----------
Experiment: recombinant barcode read abundance after kanamycin selection (control-corrected) (log10(CPM+1)); higher = more efficient recombination; sequences stand for … in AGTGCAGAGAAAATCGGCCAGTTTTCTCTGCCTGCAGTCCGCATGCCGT…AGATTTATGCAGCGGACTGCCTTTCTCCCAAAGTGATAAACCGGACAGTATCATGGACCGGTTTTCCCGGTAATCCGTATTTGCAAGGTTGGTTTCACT; site = the 11-nt target
measure-name: recombinant barcode read abundance (log10)
Reply with just the number.

Please review the following examples before continuing.
CGCCCTCCTTGGGTTCTAACCTGTTGCAT (site CGCCTTCCTAT)    0.0322
CTTGGGTCTTGGGTTCTAACCTGTTGCAT (site CTTGGGTCTAT)    2.72
TAGGCCACTTGGGTTCTAACCTGTTGCGT (site TAGGCCACTAT)    1.7
CAGCAGCCTTGGGTTCTAACCTGTTGCTT (site TCCGTTACTCG)    0.0126

Let us examine a further case.
Which recombinant barcode read abundance (log10) is reported for this sequence? GTAATTGCTTGGGTTCTAACCTGTTGCCT (site GTAACTGCTAG)
0.519

----------
Assay: recombinant UMI read abundance after kanamycin selection (control-corrected) (log10(CPM+1)); higher = more efficient recombination; extreme values may be limits of the assay; sequences stand for … in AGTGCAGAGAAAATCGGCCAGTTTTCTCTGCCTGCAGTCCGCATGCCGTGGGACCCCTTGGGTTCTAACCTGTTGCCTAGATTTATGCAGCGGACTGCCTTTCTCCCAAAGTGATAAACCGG…AGGTTGGTTTCACT; site = the 11-nt donor
measure-name: recombinant UMI read abundance (log10)
Reply with just the number.

Please review the following examples before continuing.
AATTATGCATGGACCGGTTTTCCCGGTAATCCGTATTTGGT (site AATTATGCTTC)    0.0116
CACACCTCATGGACCGGTTTTCCCGGTAATCCGTATTTGGC (site CACACCTCTGC)    3.07
CTATCATCATGGACCGGTTTTCCCGGTAATCCGTATTTGGT (site CTATCATCTAC)    0.706
CACCTCTCATGGACCGGTTTTCCCGGTAATCCGTATTTGCT (site CACCTCTCTAG)    2.84
ATTGAGCCATGGACCGGTTTTCCCGGTAATCCGTATTTGGT (site ATTGAGACTAC)    0.00491

Which recombinant UMI read abundance (log10) is reported for this sequence? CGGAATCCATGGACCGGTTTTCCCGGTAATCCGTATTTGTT (site CGAAATCCTAG)
0

Which recombinant UMI read abundance (log10) is reported for this sequence? AGCAAAACATGGACCGGTTTTCCCGGTAATCCGTATTTGCA (site AGCAAAACTTG)
0.735

Which recombinant UMI read abundance (log10) is reported for this sequence? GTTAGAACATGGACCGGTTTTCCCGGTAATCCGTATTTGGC (site GTCAGAACTGC)
0

Which recombinant UMI read abundance (log10) is reported for this sequence? TGTACGTCATGGACCGGTTTTCCCGGTAATCCGTATTTGTT (site TGTACGTCTAA)
0.00887

Which recombinant UMI read abundance (log10) is reported for this sequence? TAAGATACATGGACCGGTTTTCCCGGTAATCCGTATTTGCT (site TAAGATACTAG)
2.11

Which recombinant UMI read abundance (log10) is reported for this sequence? GTAGTCGCATGGACCGGTTTTCCCGGTAATCCGTATTTGTG (site GTAGTCGCTCT)
1.05
